Test Details: in vitro
Experimental Conditions: human, hek293t cells
In plain terms, low viability at 48 h, 25 µM, meaning strictly below 80%, gives Satisfied, and everything else gives Not satisfied.

Answered examples (8):
Compound	Assigned Label
C=CC(=O)NC1CS(=O)(=O)C1 [3-P18]	Not satisfied
CC(Cl)C(=O)N1CCC(N(C)Cc2cc(=O)[nH]c(N(C)C)n2)C1 (centres unmarked) [7-E18]	Satisfied
O=C(CCl)Nc1ccc(CN2CCCCC2)cc1 [6-M04]	Satisfied
N#CC(=CC=Cc1ccccc1)C(=O)Nc1ccc(F)c(Cl)c1 [8-O18]	Satisfied
COc1ccc(Cl)cc1C(O)CNC(=O)CCl (centres unmarked) [7-N06]	Satisfied
CC1CN(C(=O)C(C)Cl)CC(C)O1 (centres unmarked) [5-F04]	Not satisfied
Cc1ccc(NC(=O)N2CCSSCC2)c(C)c1 [10-F11]	Not satisfied
CC1CC(C)CN(S(=O)(=O)c2ccc(NC(=O)CCl)cc2)C1 (centres unmarked) [4-K16]	Satisfied

Hello, I'm reviewing records and need to know if viability at 48 h, 25 µM of CC(C)NC(=O)C(C#N)=Cc1cccc(C(F)(F)F)c1 [9-J13] is below 80%. Could you check?
Satisfied

One more compound: N#CC(=Cc1cccc2ccccc12)C(=O)NC1CC1 [9-O03]
Not satisfied

One more compound: CC(C)N(C)S(=O)(=O)c1ccc(NC(=O)CCl)cc1 [4-K13]
Satisfied

One more compound: CCN(Cc1ccc(C#N)cc1F)C(=O)CCl [5-H08]
Satisfied

One more compound: CC(Cl)C(=O)N1CCN(Cc2cc(=O)n3ccsc3n2)CC1 (centres unmarked) [6-P17]
Not satisfied

One more compound: O=C(CCl)NC1CCC(c2nc(-c3ccccc3)n[nH]2)CC1 (centres unmarked) [6-G19]
Satisfied

One more compound: C=CC(=O)NCCC(=O)Nc1nc2n(n1)CCCC2 [2-M14]
Not satisfied

----------
Test Details: in vitro
Experimental Conditions: human, hek293t cells
In plain terms, low viability at 48 h, 25 µM, meaning strictly below 60%, gives true, and everything else gives false.

Answered examples (6):
Compound	Assigned Label
COc1ccc(N(C(=O)CCl)C2C=CS(=O)(=O)C2)cc1 (stereo not shown)	true
C=CC(=O)NCCNS(=O)(=O)c1cc(C)ccc1F	true
Cc1noc(C)c1S(=O)(=O)N1CCCN(C(=O)C(C)Cl)CC1 (stereo not shown)	false
C=CC(=O)Nc1ccc(OC)cc1S(C)(=O)=O	false
C=CC(=O)NCCN1CCCCC1C (stereo not shown)	false
C=CC(=O)NCCC(=O)N1CCOC(c2nc(C)cs2)C1 (stereo not shown)	false

Hello, I'm reviewing records and need to know if viability at 48 h, 25 µM of C=CC(=O)N1CSCC1C(=O)N1CCOCC1 (stereo not shown) is below 60%. Could you check?
false

One more compound: O=C(CN1CCN(C(=O)CCl)CC1)Nc1cccc(F)c1
true

One more compound: Cc1ccc(SCCNC(=O)CCl)cc1
true

One more compound: CCn1nc(C)c(C=C(C#N)C(=O)Nc2ccccc2Cl)c1C
false

One more compound: O=C(CCl)Cc1ccc(Cl)cc1Cl
true

One more compound: COc1ccc(O)c(C=C(C#N)C(=O)Nc2cccc3ccccc23)c1
false

One more compound: CC(Cl)C(=O)N1CCN(C)C(c2nc(C3CC3)no2)C1 (stereo not shown)
false

One more compound: O=C(CCl)NCc1ccccc1Cn1cccn1
false

One more compound: Cc1ccc(C(=O)c2ccccc2)c(NC(=O)CCl)c1
true

One more compound: C=CC(=O)N(Cc1ccc(=O)n(C)c1)C1CCCc2ccccc21 (stereo not shown)
false

One more compound: C=CC(=O)NCc1cc(-c2ccccc2OC)no1
false

One more compound: O=C(CCl)Nc1ccc(C(=O)O)cc1[N+](=O)[O-]
false

One more compound: C=CC(=O)N1CCOC(c2cccc(OC)c2)C1 (stereo not shown)
true

One more compound: C=CC(=O)NCc1ccc(N2CCN(C)CC2)cc1
false

One more compound: N#CC(=Cc1csc2ccccc12)C(=O)NCc1ccco1
false

One more compound: Cc1nn(-c2ccccc2)c(C)c1C=C(C#N)C(=O)Nc1nccs1
false

----------
Hi there, I'd appreciate the recorded viability at 48 h, 25 µM for every entry that follows.
Test Details: in vitro
Experimental Conditions: human, hek293t cells
One number for each entry, in %.

// known answers, use as guide
Compound	Readout Units	viability at 48 h, 25 µM
Cc1ccc(C)c(NC(=O)C(C#N)=Cc2ccc(N3CCCCC3)o2)c1 [9-D12]	%	69.5
CC(Cl)C(=O)N1Cc2ccccc2OC(C)(C)C1 (stereo not shown) [6-H19]	%	91
Cc1ccsc1C=C(C#N)C(=O)N1CCN(c2ccccc2)CC1 [8-B13]	%	92.4

Continue with the next compound.
Fill blank: measured viability at 48 h, 25 µM of the compound C=CC(=O)NCC1CCCC(C2CC2)O1 (stereo not shown) [1-M17] is ____.
88.7

----------
Hi there, I'd appreciate the recorded viability at 48 h, 25 µM for every entry that follows.
Test Details: in vitro
Experimental Conditions: human, hek293t cells
Numbers only, in %.

Compound	Measure Name	Endpoint Value
COc1ccc(CN(C)C(=O)CCl)cc1	viability at 48 h, 25 µM	0.805

Parameter requested: viability at 48 h, 25 µM. Apply to each item below.
1. COc1ccc([N+](=O)[O-])cc1NC(=O)CCl
2. C=CC(=O)Nc1ccc2cc(N(C)C)ccc2c1

1. 0.714
2. 46.5

Parameter requested: viability at 48 h, 25 µM. Apply to each item below.
1. CC(Cl)C(=O)NCc1nc2c(s1)CC(c1ccccc1)CC2 (stereo not shown)
2. C=CC(=O)NCC(OC)C1CCOC1 (stereo not shown)
3. CN(c1ccc(C(=O)CCl)cc1)S(C)(=O)=O
4. CC(Cl)C(=O)NCCN(C)S(=O)(=O)c1cccs1 (stereo not shown)
5. CC(=O)Nc1ccsc1C=C(C#N)C(=O)Nc1ccc(F)cc1

[57.5, 85.8, 74, 97.9, 98.4]

Parameter requested: viability at 48 h, 25 µM. Apply to each item below.
1. Cn1cc(C=C(C#N)C(=O)NCc2ccccc2)cn1
2. C=CC(=O)NC1CCC(c2nc(-c3ccccc3)n[nH]2)CC1 (stereo not shown)
3. C[C@@H](NC(=O)CCl)c1cnnn1C
4. COc1ccc(C(=O)CCl)c(OC)c1

111
104
44.8
66.7

Parameter requested: viability at 48 h, 25 µM. Apply to each item below.
1. COc1ccc(S(=O)(=O)N2CCOCC2)cc1NC(=O)CCl
2. C=CC(=O)NCC1(C)CCS(=O)(=O)CC1
3. CC(Cl)C(=O)N(C)C1CCS(=O)(=O)CC1 (stereo not shown)

1: 1.63; 2: 83.1; 3: 99.1

----------
Test Details: in vitro
Experimental Conditions: human, hek293t cells
Recorded viability at 48 h, 25 µM determines the group label, using Low = under 70%, Medium = from 70% up to 90%, High = 90% and over

Compound	Assigned Label
C=CC(=O)NCc1c(C)nc2ccccn12	Medium
COc1ccc(NC(=O)C(C#N)=CC=Cc2ccccc2)cc1Cl	Medium
C=CC(=O)Nc1ccc2c(c1)SCC(=O)N2	High
O=C(CCl)NCCCC(=O)N1CCCC1	High
CC(Cl)C(=O)N1CCC(Cc2ccccc2)CC1 (stereo not shown)	Medium
O=C(CCl)Nc1ccccc1Sc1ccc(Cl)cc1	Low

For this compound, which bin applies? N#CC(=Cc1c[nH]c2ccccc12)C(=O)Nc1ccccn1
High

One more compound: Cc1nc(C(NC(=O)CCl)c2ccccc2)no1 (stereo not shown)
Low

One more compound: O=C(CCl)N1CCn2c(cc3ccccc32)C1
Low

One more compound: COc1cccc(NC(=O)C(C#N)=Cc2c[nH]c(-c3ccccc3)n2)c1
High

One more compound: CC(Cl)C(=O)N(C)CCn1c(=O)oc2ccccc21 (stereo not shown)
High

One more compound: COc1cc(C=C(C#N)C(=O)Nc2nccs2)cc(OC)c1
High

One more compound: CC(C)NC(=O)C(C#N)=Cc1ccccc1Cl
High

One more compound: C=CC(=O)NCc1cccc(-c2nnc[nH]2)c1
High

One more compound: Cc1cc(F)c(C(=O)CCl)cc1F
Medium

One more compound: COc1cc(C=C(C#N)C(=O)Nc2nccs2)cc(OC)c1O
Medium

One more compound: O=C(CCl)c1c(-c2ccc(F)cc2)[nH]c2ccccc12
Low

One more compound: C=CC(=O)N1CCCCC1C1CCCO1 (stereo not shown)
Low

One more compound: CC(C)(C)C(=O)NCc1ccc(C(=O)CCl)s1
Low

----------
Test Details: in vitro
Experimental Conditions: human, hek293t cells
Measure Name: viability at 48 h, 25 µM
I'd appreciate it if you included the unit after the number.

// known answers, use as guide
Molecule	viability at 48 h, 25 µM
CC(Cl)C(=O)NC(C)c1ccn(C)n1 (stereo not drawn) [6-B16]	103%
C=CC(=O)N1CCN(Cc2ncon2)CC1 [3-I16]	106%
CSc1cccc(-n2c(C)cc(C(=O)CCl)c2C)c1 [10-J16]	0.898%
CC(Cl)C(=O)NCc1csc(-c2ccco2)n1 (stereo not drawn) [7-K05]	90.6%
O=C(CCl)c1c[nH]c(C(=O)N2CCCC2)c1 [10-A16]	0.377%

Parameter requested: viability at 48 h, 25 µM. Apply to each item below.
1. CCN(Cc1cccc(C)c1)C(=O)CCl [5-J16]
2. C=CC(=O)NCc1ccc(C(=O)N2CCOCC2)cc1 [1-L17]
3. N#CC(=CC1=Cc2ccccc2OC1)C(=O)NCc1ccccc1 [9-F08]
4. Nc1c(C(=O)CCl)c(=O)[nH]c(=O)n1C1CC1 [10-P06]

["1.39%", "81.2%", "114%", "111%"]
